List of pIC50 values.
Molecular target: cortisone reductase of mouse adipose cell (11βHSD1) (Mus musculus)
Construct: The medium of adipocytes which were differentiated and induced as mentioned above were replaced; endogenous in cells
Sequence (P50172 whole entry): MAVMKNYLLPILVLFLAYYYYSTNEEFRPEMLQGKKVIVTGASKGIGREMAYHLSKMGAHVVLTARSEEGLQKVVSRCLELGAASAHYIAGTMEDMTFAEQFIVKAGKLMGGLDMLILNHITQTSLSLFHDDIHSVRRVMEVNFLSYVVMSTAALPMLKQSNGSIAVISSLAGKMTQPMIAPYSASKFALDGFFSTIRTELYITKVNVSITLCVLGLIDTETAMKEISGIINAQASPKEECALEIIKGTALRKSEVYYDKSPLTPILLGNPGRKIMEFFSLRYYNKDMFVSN
Assay: Inhibitory activity assay against cortisone reductase of mouse primary adipocytes
Settings: differentiated ICR mouse visceral fat primary adipocytes, 100 nM [1,2-3H] cortisone, 37° C.
pIC50: −log10 of the molar value.
experimental.endpoint: pIC50

• O=C(NC1C2CC3CC1CC(O)(C3)C2)N1C2CCC1CC(N1Cc3ccccc3C1)C2 (stereo not shown) [Example 431] = 7.57
• COCc1cccc(OC2CC3CCC(C2)N3C(=O)NC2C3CC4CC2CC(O)(C4)C3)c1F (stereo not shown) [Example 364] = 8.11
• CC(=O)c1cccnc1OC1CC2CCC(C1)N2C(=O)NC1C2CC3CC1CC(O)(C3)C2 (stereo not shown) [Example 353] = 8.10
• CC(C)c1ccnc(OC2CC3CCC(C2)N3C(=O)NC2C3CC4CC2CC(O)(C4)C3)c1 (stereo not shown) [Example 309] = 8.39
• O=C(NC1C2CC3CC1CC(O)(C3)C2)N1C2CCC1CC(Oc1cccc(Cl)n1)C2 (stereo not shown) [Example 311] = 8.06
• Cc1cccnc1OC1CC2CCC(C1)N2C(=O)NC1C2CC3CC1CC(O)(C3)C2 (stereo not shown) [Example 407] = 8.39
• CN(c1ccccc1)C1CC2CCC(C1)N2C(=O)NC1C2CC3CC1CC(O)(C3)C2 (stereo not shown) [Example 316] = 7.74
